experiment: Bioavailability in dog at 0.5 mg/kg, iv; assay type: ADME, organism-based, Canis lupus familiaris; settings: in vivo
measured_property: bioavailability (%)
Just the number in %, nothing appended.

Prompt line: Identify bioavailability associated with the compound CC1(C)CC(=O)c2c(C(F)(F)F)nn(Cc3ccc(C(=O)NO)cc3)c2C1
Response line: 25.1

----------
test: Bioavailability in mouse at 10 mg/kg, iv; format: ADME, organism-based; details: in vivo
measured_property: bioavailability (%)
Just the number in %, nothing appended.

Prompt line: Identify bioavailability associated with the compound CC1(C)CC(=O)c2c(C(F)(F)F)nn(Cc3ccc(C(=O)NO)cc3)c2C1
Response line: 19

----------
target: Histone deacetylase 5 (Homo sapiens); assay: Inhibition of human recombinant HDAC5 using Boc-Lys(tri-fluoroacetyl)-AMC as substrate by fluorescence based analysis
Sequence (Q9UQL6 whole entry): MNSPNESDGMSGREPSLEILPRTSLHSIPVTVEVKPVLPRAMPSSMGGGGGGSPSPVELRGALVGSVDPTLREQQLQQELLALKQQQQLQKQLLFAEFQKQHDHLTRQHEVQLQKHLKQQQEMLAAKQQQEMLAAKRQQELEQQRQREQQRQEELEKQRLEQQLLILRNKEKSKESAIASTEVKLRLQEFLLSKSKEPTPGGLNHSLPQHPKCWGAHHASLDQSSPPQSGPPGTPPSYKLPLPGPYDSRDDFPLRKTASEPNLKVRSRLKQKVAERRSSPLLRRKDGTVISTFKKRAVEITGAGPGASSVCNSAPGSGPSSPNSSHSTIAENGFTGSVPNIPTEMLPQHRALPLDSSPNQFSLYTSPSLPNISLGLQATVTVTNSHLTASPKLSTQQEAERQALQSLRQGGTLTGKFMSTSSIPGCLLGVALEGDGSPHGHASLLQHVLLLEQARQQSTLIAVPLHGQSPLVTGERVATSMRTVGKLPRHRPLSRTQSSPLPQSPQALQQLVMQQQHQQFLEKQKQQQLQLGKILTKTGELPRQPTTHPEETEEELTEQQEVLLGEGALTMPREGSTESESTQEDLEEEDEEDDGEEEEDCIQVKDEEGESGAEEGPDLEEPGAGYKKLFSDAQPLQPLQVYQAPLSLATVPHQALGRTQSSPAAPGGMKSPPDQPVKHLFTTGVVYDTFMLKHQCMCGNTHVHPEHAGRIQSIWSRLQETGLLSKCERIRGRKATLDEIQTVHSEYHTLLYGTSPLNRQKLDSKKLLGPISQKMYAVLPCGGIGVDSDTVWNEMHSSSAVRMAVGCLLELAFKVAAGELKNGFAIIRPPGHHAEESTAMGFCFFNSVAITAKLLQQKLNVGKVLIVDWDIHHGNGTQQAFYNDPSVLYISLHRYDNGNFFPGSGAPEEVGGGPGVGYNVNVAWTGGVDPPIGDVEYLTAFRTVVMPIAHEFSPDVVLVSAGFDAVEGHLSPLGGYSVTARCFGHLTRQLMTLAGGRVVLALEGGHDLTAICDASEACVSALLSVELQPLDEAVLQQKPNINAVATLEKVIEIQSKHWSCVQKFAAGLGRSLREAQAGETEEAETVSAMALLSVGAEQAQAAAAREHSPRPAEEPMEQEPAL
measured_property: IC50

Prompt line: Identify IC50 associated with the compound O=C(NO)c1ccc(Cn2c3c(c4ccccc42)C(=O)CCC3)cc1
Response line: > 20 µM

----------
test: Cmax in mouse at 50 mg/kg, po; format: ADME, organism-based; details: in vivo
measured_property: Cmax (ng/mL)
Just the number in ng/mL, nothing appended.

Prompt line: Identify Cmax associated with the compound CC1(C)CC(=O)c2c(C(F)(F)F)nn(Cc3ccc(C(=O)NO)cc3)c2C1
Response line: 2080

----------
target: Histone deacetylase 2 (Homo sapiens); test: Inhibition of human recombinant HDAC2 using fluorescent peptide p53 (379 to 382 residues) RHKK(Ac) as substrate by fluorescence based analysis
Sequence (Q92769 whole entry, the tested form may be a part): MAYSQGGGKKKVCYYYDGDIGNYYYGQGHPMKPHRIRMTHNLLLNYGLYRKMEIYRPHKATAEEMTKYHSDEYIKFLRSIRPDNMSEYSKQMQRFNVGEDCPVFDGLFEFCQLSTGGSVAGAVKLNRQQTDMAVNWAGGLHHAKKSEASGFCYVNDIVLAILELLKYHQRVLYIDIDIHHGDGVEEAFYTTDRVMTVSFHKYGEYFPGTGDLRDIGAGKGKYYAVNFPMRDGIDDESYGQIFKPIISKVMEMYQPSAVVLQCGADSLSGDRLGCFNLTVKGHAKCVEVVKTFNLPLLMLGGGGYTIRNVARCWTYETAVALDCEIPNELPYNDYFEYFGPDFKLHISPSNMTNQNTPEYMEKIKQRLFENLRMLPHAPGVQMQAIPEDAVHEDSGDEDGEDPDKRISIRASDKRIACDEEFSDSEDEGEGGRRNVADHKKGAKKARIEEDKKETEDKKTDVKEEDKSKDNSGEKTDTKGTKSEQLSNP
Parameter: IC50. Scope: all listed entries.

Prompt line: Identify IC50 associated with the compound CC1(C)CC(=O)c2c(C(F)(F)F)nn(Cc3ccc(C(=O)NO)cc3)c2C1
Response line: > 20 µM

Prompt line: Identify IC50 associated with the compound O=C(NO)c1ccc(Cn2c3c(c4ccccc42)C(=O)CCC3)cc1
Response line: > 20 µM

Prompt line: Identify IC50 associated with the compound CN1CCN(CC2CCc3c(c4cc(F)ccc4n3Cc3ccc(C(=O)NO)cc3)C2=O)CC1 (stereo not drawn)
Response line: > 20 µM

----------
test: AUClast in monkey at 0.5 mg/kg, iv; assay type: ADME, organism-based, Macaca mulatta; settings: rhesus monkey, in vivo
measured_property: AUC(0-t) (µg·h/mL)
Just the number in µg·h/mL, nothing appended.

Prompt line: Identify AUC(0-t) associated with the compound CC1(C)CC(=O)c2c(C(F)(F)F)nn(Cc3ccc(C(=O)NO)cc3)c2C1
Response line: 0.299
